Every entry's value here was drawn from ChEMBL document CHEMBL1138203.

This section presents compounds with their documented Ki values.
Target: Protein-glutamine gamma-glutamyltransferase (Homo sapiens)
Sequence (P21980 whole entry): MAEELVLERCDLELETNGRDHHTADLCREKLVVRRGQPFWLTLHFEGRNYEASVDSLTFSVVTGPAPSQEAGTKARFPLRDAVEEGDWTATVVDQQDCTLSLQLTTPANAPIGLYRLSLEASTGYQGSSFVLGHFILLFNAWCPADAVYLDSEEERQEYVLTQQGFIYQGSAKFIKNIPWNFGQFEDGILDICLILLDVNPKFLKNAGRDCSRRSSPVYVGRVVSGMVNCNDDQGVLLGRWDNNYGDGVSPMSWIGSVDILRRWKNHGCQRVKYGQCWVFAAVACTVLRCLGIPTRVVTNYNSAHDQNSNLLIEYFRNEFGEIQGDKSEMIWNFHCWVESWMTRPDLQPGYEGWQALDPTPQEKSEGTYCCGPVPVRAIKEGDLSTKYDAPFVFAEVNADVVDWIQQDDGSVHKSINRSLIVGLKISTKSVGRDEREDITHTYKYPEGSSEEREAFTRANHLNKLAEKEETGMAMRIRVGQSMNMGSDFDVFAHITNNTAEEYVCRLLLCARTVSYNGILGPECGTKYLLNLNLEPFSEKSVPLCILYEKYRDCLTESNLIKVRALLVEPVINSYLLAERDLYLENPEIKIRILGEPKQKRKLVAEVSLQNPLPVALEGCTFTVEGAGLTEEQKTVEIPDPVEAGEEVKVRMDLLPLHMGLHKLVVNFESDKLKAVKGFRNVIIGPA
Experiment: Inhibition of human recombinant TG2 expressed in Escherichia coli
Numbers only here, please. The scale is µM.

> print(dat)
                                   compound                               system.name  value.unit  recorded.value
1  O=C(NC[C@@H]1CC(Br)=NO1)[C@@H]1CCCN1C(=O)OCc1cnc2ccccc2c1  Protein-glutamine gamma-glutamyltransferase (Homo sapiens)          µM              11
2  O=C(N[C@@H](Cc1c[nH]c2ccc(F)cc12)C(=O)NC[C@@H]1CC(Br)=NO1)OCc1cnc2ccccc2c1  Protein-glutamine gamma-glutamyltransferase (Homo sapiens)          µM             1.3
3  O=C(NC(Cc1c[nH]c2ccc(F)cc12)C(=O)NCC1CC(Br)=NO1)OCc1ccccc1 (stereo not given)  Protein-glutamine gamma-glutamyltransferase (Homo sapiens)          µM              19
4  O=C(NC(Cc1c[nH]c2ncccc12)C(=O)NCC1CC(Br)=NO1)OCc1ccccc1 (stereo not given)  Protein-glutamine gamma-glutamyltransferase (Homo sapiens)          µM              22

Moving on to the next compound.
Lookup result for O=C(NCC1CC(Br)=NO1)C1Cc2ccccc2N1C(=O)OCc1ccccc1 (stereo not given) ; measured Ki: 138
